Recorded pIC50 by entry
Target: Agaricus bisporus tyrosinase (AbTYR)
Test: AbTYR inhibition assay
Format: biochemical
In plain terms, pIC50 is the concentration in mol/L turned into minus its base-10 logarithm.

In the examples that follow, each entry is paired with its recorded pIC50.
{"given_smiles": "CCC(=O)N1CCN(c2ccc(O)cc2)CC1", "pIC50": 5.06}
{"given_smiles": "O=C(c1ccc(=O)[nH]c1)N1CCN(c2ccc(O)cc2)CC1", "pIC50": 4.88}
{"given_smiles": "CC(=O)N1CCN(c2ccc(O)cc2)CC1", "pIC50": 4.50}

Exercise: Lab note: Agaricus bisporus tyrosinase (AbTYR) assay, enter pIC50 for "CC(=O)NCC(=O)N1CCN(c2ccc(O)cc2)CC1" here
Solution: 5.40

Exercise: Name the recorded pIC50 of "O=C(O)c1ccccc1C(=O)N1CCN(c2ccc(O)cc2)CC1" , assay system Agaricus bisporus tyrosinase (AbTYR).
Solution: 4.39

====

Target: human tyrosinase (hTYR) (Homo sapiens)
Sequence (P14679 19-476 limits assumed): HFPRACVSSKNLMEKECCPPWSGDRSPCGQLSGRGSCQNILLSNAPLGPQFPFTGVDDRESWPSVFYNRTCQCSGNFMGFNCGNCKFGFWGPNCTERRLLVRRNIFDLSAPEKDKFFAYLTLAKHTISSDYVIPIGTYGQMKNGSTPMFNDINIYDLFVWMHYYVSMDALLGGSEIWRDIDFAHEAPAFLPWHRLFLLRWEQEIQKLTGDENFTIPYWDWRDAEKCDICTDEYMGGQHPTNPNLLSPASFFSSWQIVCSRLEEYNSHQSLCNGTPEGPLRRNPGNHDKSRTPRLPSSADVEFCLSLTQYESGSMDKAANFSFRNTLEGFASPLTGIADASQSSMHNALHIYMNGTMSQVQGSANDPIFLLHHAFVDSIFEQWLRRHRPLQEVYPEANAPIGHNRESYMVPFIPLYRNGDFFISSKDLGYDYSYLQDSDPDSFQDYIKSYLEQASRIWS
Each entry below lists one item and its recorded pIC50 value.
Scale for pIC50: -log10 of concentration given in mol/L; no unit attached.

{"molecule": "O=C(c1ccc(=O)[nH]c1)N1CCN(c2ccc(O)cc2)CC1 [Compound 2]", "study_system": "human tyrosinase (hTYR) (Homo sapiens)", "test_result": 5.11}

Exercise: Read the entry CC(=O)NCC(=O)N1CCN(c2ccc(O)cc2)CC1 [Compound 5] and write its reported pIC50.
Solution: 4.57

====

Assay: MTT cell viability
Format: cell-based
Conditions: human, HaCaT keratinocyte cells, all concentrations tested (5 to 50 μM)
readout_name: viability at 24 h

Exercise: Complete the entry with viability at 24 h for O=C(c1ccc(=O)[nH]c1)N1CCN(c2ccc(O)cc2)CC1 [Compound 2]
Solution: > 87%
